System: Plasmodium berghei
testMethodNotes: Luciferase/luciferin-expressing antifolate-resistant parasites were used to infect a culture of HepG2 cells that were pre-incubated with compounds. Infected hepatocytes emit light due to the luciferase reaction. Assay results are presented as the percent inhibition of light emission compared to control. […]
Type: functional
statedConditions: sporozoite, HEPG2TOX_HILL_SLOPE 8.79, HEPG2TOX_R_SQUARED 0.806, read-out: LUCIFERASE INFECTION ASSAY - IC50
observationType: IC50

INSERT INTO measurements (smilesentry, result) VALUES
  ('COc1cc(/C=C(\C#N)c2cccn2C)cc(OC)c1OC', '> 11.1 µM');
